biological target: MASP-2 (CCP1-CCP2-SP) (Homo sapiens (Human), UniProt O00187); test: biochemical; type: biochemical; details: read-out: MASP-2 Ki
Sequence (O00187 445-686): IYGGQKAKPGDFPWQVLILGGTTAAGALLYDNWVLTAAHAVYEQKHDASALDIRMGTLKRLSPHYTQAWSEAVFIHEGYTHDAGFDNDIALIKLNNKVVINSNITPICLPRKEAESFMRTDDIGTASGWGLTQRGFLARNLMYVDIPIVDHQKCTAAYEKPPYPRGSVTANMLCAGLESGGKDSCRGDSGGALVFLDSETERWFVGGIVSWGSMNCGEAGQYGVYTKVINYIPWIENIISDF
Where a name gives a salt, the structure may show the parent alone.
measurementName: Ki

COc1ccc(CC[C@@H](N)C(=O)N[C@@H](C)C(=O)NCc2ccc(C(=N)N)cc2)c(OC)c1 : < 500 nM
C[C@H](NC(=O)[C@H](N)CCc1ccc(C(F)(F)F)cc1)C(=O)NCc1ccc(C(=N)N)cc1 [compound 1119, Dihydrochloride] : < 500 nM
C[C@H](NC(=O)[C@H](N)CCc1ccccc1)C(=O)NCc1cccc(Cl)c1 : < 10000 nM
CCc1cccc([C@H]2CN[C@@H](C(=O)N[C@@H](C)C(=O)NCc3ccc(C(=N)N)cc3)C2)c1 [compound 1302, Dihydrochloride] : < 500 nM

----------
molecular target: MASP-2 (CCP1-CCP2-SP) (Homo sapiens (Human)); experiment: biochemical; assay type: biochemical; details: selectivity for MASP-2 inhibition versus thrombin
Counter-ions that a name gives are not always drawn.
measurementName: MASP-2 vs. thrombin selectivity

Cc1nc(N)ccc1CNC(=O)[C@H](C)NC(=O)[C@H]1C[C@H](C2(c3ccccc3)CC2)CN1 [compound 1481, Di-trifluoroacetate salt] : **** (≥100-fold)
Cc1nc(N)ccc1CNC(=O)[C@H](C)NC(=O)[C@H]1CC(Cc2ccc(F)cc2)(Cc2ccc(F)cc2)CN1 [compound 1480, Di-trifluoroacetate salt] : **** (≥100-fold)
Cc1nc(N)ccc1CNC(=O)[C@H](C)NC(=O)c1cc(Cc2ccccc2)c[nH]1 : **** (≥100-fold)
Cc1nc(N)ccc1CNC(=O)[C@H](C)NC(=O)[C@H]1C[C@H](Cc2ccc(Cc3ccccc3)cc2)CN1 [compound 1427, di-trifluoroacetate salt] : **** (≥100-fold)
CCCCCN[C@H](CCc1ccccc1)C(=O)N[C@@H](C)C(=O)NCc1ccc(N)nc1C [compound 1377, Di-trifluoroacetate salt] : ** (≥5.0 to <25-fold)
Cc1[nH]c(C(=O)N[C@@H](C)C(=O)NCc2ccc(C(=N)N)cc2)cc1-c1ccccc1 : ** (≥5.0 to <25-fold)

----------
Recorded measurements of pKi, one per entry
biological target: MASP-2 (CCP1-CCP2-SP) (Homo sapiens (Human), UniProt O00187); experiment: biochemical; format: biochemical; settings: read-out: MASP-2 Ki
pKi: −log10 of the molar value. Counter-ions that a name gives are not always drawn.
measurementName: pKi

C[C@H](NC(=O)[C@H]1C[C@H](Cc2ccccc2)CN1)C(=O)NCc1cc(Cl)ccc1-n1cnnn1 [compound 1371, Hydrochloride] : > 6.30
Cc1cccc([C@H]2CN[C@@H](C(=O)N[C@@H](C)C(=O)NCc3ccc(C(=N)N)cc3)C2)c1 [compound 1247] : > 6.30
Cc1nc(N)ccc1CNC(=O)[C@H](C)NC(=O)[C@H]1C[C@@H](Cc2ccccc2)CN1 [compound 1283] : > 6.30

----------
target: human α-thrombin (Homo sapiens (Human), UniProt P00734); assay: Enzymatic assay for thrombin (Boc-VPR-AMC substrate); assay type: biochemical; details: read-out: Thrombin Ki
Counter-ions that a name gives are not always drawn.
Recorded measurements of Ki, one per entry
measurementName: Ki

Cc1nc(N)ccc1CNC(=O)[C@H](C)NC(=O)[C@H]1C[C@H](Oc2ccccc2)CN1 : > 25 µM
C[C@H](NC(=O)[C@H]1C[C@H](Cc2ccccc2)CN1)C(=O)NCc1ccc(C(=N)N)cc1 [compound 1306, Dihydrochloride] : < 0.5 µM
N=C(N)c1ccc(CNC(=O)[C@@H]2CCCCN2C(=O)[C@H](NCC(=O)O)C2CCCCC2)cc1 : < 0.5 µM
Cc1ccc(CSC(C)(C)[C@@H](N)C(=O)N2CC[C@H]2C(=O)NCc2ccc(C(=N)N)cc2)cc1 : < 0.5 µM
Cc1cccc(CC[C@@H](N)C(=O)N[C@@H](C)C(=O)NCc2ccc(C(=N)N)cc2)c1C : < 0.5 µM
Cc1cccc(CNC(=O)[C@H](C)NC(=O)[C@H]2C[C@H](Cc3ccccc3)CN2)c1-n1ncnn1 : > 25 µM
C[C@H](NC(=O)[C@H](N)CCc1ccccc1)C(=O)NCCCCNC(=N)N : > 25 µM
N=C(N)c1ccc(CNC(=O)[C@@H]2CCN2C(=O)[C@H](NCC(=O)O)C2CC2)cc1 : < 0.5 µM
C[C@H](NC(=O)[C@H]1C[C@H](c2ccccc2)CN1)C(=O)NCc1cc(Cl)cc(C(N)=O)c1 [compound 1387, Trifluoroacetate salt] : > 25 µM
Cc1nc(N)ccc1CNC(=O)[C@H](C)NC(=O)c1cc(Cc2ccccc2)n[nH]1 : > 25 µM
Cc1nc(N)ccc1CNC(=O)[C@H](C)NC(=O)[C@H]1C[C@H](Cc2ccc(C3CCC3)cc2)CN1 [compound 1379, Di-trifluoroacetate salt] : > 25 µM
Cc1nc(N)ccc1CNC(=O)[C@H](C)NC(=O)[C@H]1C[C@H](Oc2ccc(Br)cc2)CN1 [compound 1445, Dihydrochloride] : > 25 µM
C[C@H](NC(=O)[C@H](N)CCc1ccccc1)C(=O)NCc1ccnc(N)c1 [compound 1296, Dihydrochloride] : > 25 µM
C[C@H](NC(=O)[C@H](N)CCc1ccc(F)c(F)c1)C(=O)NCc1ccc(C(=N)N)cc1 : < 0.5 µM
C[C@H](NC(=O)[C@H](N)CCc1ccccc1)C(=O)NCc1cc(C#N)ccc1O [compound 1314, Trifluoroacetate salt] : > 25 µM
CCCCCCOC(=O)NC(=N)c1ccc(CNC(=O)[C@H](C)NC(=O)[C@H]2C[C@H](c3ccccc3)CN2)cc1 : > 25 µM
C[C@H](NC(=O)[C@H]1C[C@H](c2ccccc2)CN1)C(=O)NCc1cc(Cl)cc(C#N)c1 [compound 1386, Trifluoroacetate salt] : > 25 µM
Cc1cc(C)c(O)c(CNC(=O)[C@H](C)NC(=O)[C@H]2C[C@H](c3ccccc3)CN2)c1 [compound 1383, Hydrochloride] : > 25 µM
Cc1nc(N)ccc1CNC(=O)[C@H](C)NC(=O)[C@H]1C[C@H](Cc2ccc(C(C)(C)C)cc2)CN1 [compound 1380, Dihydrochloride] : > 25 µM
Cc1nc(N)ccc1CNC(=O)[C@H](C)NC(=O)[C@H]1C[C@H](Cc2ccc(OC(F)(F)F)c(Cl)c2)CN1 [compound 1455, Di-trifluoroacetate salt] : > 25 µM
C[C@H](NC(=O)[C@H]1C[C@H](c2ccccc2)CN1)C(=O)NCc1ccc(C(=N)NO)cc1 : > 25 µM
C[C@H](NC(=O)[C@H]1C[C@H](c2ccccc2)CN1)C(=O)NCc1ccc2nccn2c1 [compound 1434, Dihydrochloride] : > 25 µM
Cc1cc(N)nc(C)c1CNC(=O)[C@H](C)NC(=O)[C@H](N)CCc1ccccc1 : > 25 µM
N=C(N)c1ccc(CNC(=O)[C@@H]2CCN2C(=O)[C@H](N)c2ccccc2)cc1 : < 0.5 µM
C[C@H](NC(=O)[C@H](N)CCc1ccc(F)cc1)C(=O)NCc1ccc(C(=N)N)cc1 : < 0.5 µM
C[C@H](NC(=O)[C@H]1C[C@H](c2ccccc2)CN1)C(=O)NCc1cc(Cl)cnc1N [compound 1358, Di-trifluoroacetate salt] : > 25 µM
C[C@H](NC(=O)[C@H]1C[C@H](c2ccccc2)CN1)C(=O)NCc1cc(Cl)c[nH]c1=O [compound 1301, Hydrochloride] : > 25 µM
